Cited source for all entries: ChEMBL document CHEMBL1147676

Tested on: CT26
experimental_protocol: Antiproliferative activity against mouse CT26 cell line
Format: functional, cell-based
property_measured: log10 IC50 (log10 of the value in µM)

# compound, experimental_value
records = [
    ("Cc1ccc(S(=O)(=O)n2cc3c4c2C(=O)c2cnn(C)c2C4=NCC3)cc1", 0.69),
    ("Cc1ccc(S(=O)(=O)n2cc3c4c2C(=O)c2c(n[nH]c2C2(O)C(=O)N(C)c5ccccc52)C4=NCC3)cc1 (stereo unspecified)", 0.46),
    ("Cn1ncc2c1C1=NCCc3c[nH]c(c31)C2=O", 0.85),
    ("CC[C@@]1(O)C(=O)OCc2c1cc1n(c2=O)Cc2cc3ccccc3nc2-1 [CAMPTOTHECIN]", -1.47),
    ("COc1cc([C@@H]2c3cc4c(cc3[C@@H](O[C@@H]3O[C@@H]5CO[C@@H](C)O[C@H]5[C@H](O)[C@H]3O)[C@H]3COC(=O)[C@H]23)OCO4)cc(OC)c1O [ETOPOSIDE]", -0.70),
    ("Cc1ccc(S(=O)(=O)n2cc3c4c2C(=O)c2c(cnn2C)C4=NCC3)cc1", 0.72),
]
